Conditions: in vivo, po
Measured property: Tmax (h)
# value in h; strip the unit string

[in] # return recorded Tmax for entry CC(C)Cc1ccc(C(C)C(=O)O)cc1 (stereo not shown)
[out] 1
